The reported numbers originate from patent US20250161299A1.

Assay: Phase I trial of oral PCLX-001: plasma pharmacokinetics, noncompartmental analysis (Phoenix WinNonlin 8.3)
Type: in vivo, human
Settings: human, plasma, po, 20 mg, Table 1A; Patient 115-002-004 (Patient 3); Day 1; 20 mg oral daily; read-out: Tmax
From the text: The clinical trial is entitled “Phase I Trial of PCLX-001 in B-cell Non-Hodgkin Lymphoma and Advanced Solid Malignancies” and registered at clinicaltrials.gov as NCT04836195. It is a phase I dose-escalation study of oral PCLX-001, conducted in a multicenter, non-randomized, open-label, non-controlled design. The study is comprised of two parts: Part A (single-agent dose escalation) and Part B (single-agent expansion cohorts). […]
outcomeMeasure: Tmax (h)
Please give a number only; it is taken to be in h.

Exercise: Name the reported Tmax value associated with the compound `Cc1c(NS(=O)(=O)c2c(Cl)cc(-c3ccnc(N4CCNCC4)c3)cc2Cl)c(CC(C)C)nn1C`
Key: 2

###

assay: Phase I trial of oral PCLX-001: plasma pharmacokinetics, noncompartmental analysis (Phoenix WinNonlin 8.3); format: in vivo, human; conditions: human, plasma, po, 40 mg, Table 7; Patient 115-002-006; Day 15; 40 mg QD oral; Pantoprazole Yes; read-out: AUClast or AUCtau
outcomeMeasure: AUC(0-t) (ng·h/mL)
Please give a number only; it is taken to be in ng·h/mL.

Exercise: Name the reported AUC(0-t) value associated with the compound `Cc1c(NS(=O)(=O)c2c(Cl)cc(-c3ccnc(N4CCNCC4)c3)cc2Cl)c(CC(C)C)nn1C`
Key: 175

###

test: Phase I trial of oral PCLX-001: plasma pharmacokinetics, noncompartmental analysis (Phoenix WinNonlin 8.3); type: in vivo, human; details: human, plasma, oral, 100 mg, Table 4; median (min, max); not on Pantoprazole; 100 mg; N 4; Day 1; read-out: Tmax
outcomeMeasure: Tmax
Note: a bare number is incomplete; add the unit.

Exercise: Name the reported Tmax value associated with the compound `Cc1c(NS(=O)(=O)c2c(Cl)cc(-c3ccnc(N4CCNCC4)c3)cc2Cl)c(CC(C)C)nn1C`
Key: 2 h

###

assay: Phase I trial of oral PCLX-001: plasma pharmacokinetics, noncompartmental analysis (Phoenix WinNonlin 8.3); assay type: in vivo, human; settings: human, plasma, po, 140 mg, Table 10; Patient 115-002-006; Day 15; Dose 140 mg QD oral; Concomitant Pantoprazole No; read-out: Half-life (converted)
outcomeMeasure: half-life
Note: a bare number is incomplete; add the unit.

Exercise: Name the reported half-life value associated with the compound `Cc1c(NS(=O)(=O)c2c(Cl)cc(-c3ccnc(N4CCNCC4)c3)cc2Cl)c(CC(C)C)nn1C`
Key: 16.4 h

###

experiment: Phase I trial of oral PCLX-001: plasma pharmacokinetics, noncompartmental analysis (Phoenix WinNonlin 8.3); format: in vivo, human; conditions: human, plasma, po, 20 mg, Table 6; Patient 115-002-002; Day 15; 20 mg QD oral; Pantoprazole No; read-out: Half-life (converted)
outcomeMeasure: half-life (h)
Please give a number only; it is taken to be in h.

Exercise: Name the reported half-life value associated with the compound Cc1c(NS(=O)(=O)c2c(Cl)cc(-c3ccnc(N4CCNCC4)c3)cc2Cl)c(CC(C)C)nn1C [PCLX-001]
Key: 9.42

###

assay: Phase I trial of oral PCLX-001: plasma pharmacokinetics, noncompartmental analysis (Phoenix WinNonlin 8.3); type: in vivo, human; settings: human, plasma, po, 20 mg, Table 1A; Patient 115-002-001 (Patient 1); Day 1; 20 mg oral daily
outcomeMeasure: AUC(0-inf)
Note: a bare number is incomplete; add the unit.

Exercise: Name the reported AUC(0-inf) value associated with the compound `Cc1c(NS(=O)(=O)c2c(Cl)cc(-c3ccnc(N4CCNCC4)c3)cc2Cl)c(CC(C)C)nn1C`
Key: 2030 ng·h/mL

###

assay: Phase I trial of oral PCLX-001: plasma pharmacokinetics, noncompartmental analysis (Phoenix WinNonlin 8.3); type: in vivo, human; conditions: human, plasma, po, 100 mg, Table 9; Patient 115-002-012; Day 1; 100 mg QD oral; Pantoprazole No; read-out: Tmax
outcomeMeasure: Tmax (h)
Please give a number only; it is taken to be in h.

Exercise: Name the reported Tmax value associated with the compound Cc1c(NS(=O)(=O)c2c(Cl)cc(-c3ccnc(N4CCNCC4)c3)cc2Cl)c(CC(C)C)nn1C [PCLX-001]
Key: 4

###

assay: Phase I trial of oral PCLX-001: plasma pharmacokinetics, noncompartmental analysis (Phoenix WinNonlin 8.3); assay type: in vivo, human; details: human, plasma, po, 20 mg, Table 1A; Patient 115-002-001 (Patient 1); Day 1; 20 mg oral daily; read-out: Half-life (converted)
outcomeMeasure: half-life (h)
Please give a number only; it is taken to be in h.

Exercise: Name the reported half-life value associated with the molecule Cc1c(NS(=O)(=O)c2c(Cl)cc(-c3ccnc(N4CCNCC4)c3)cc2Cl)c(CC(C)C)nn1C [PCLX-001]
Key: 8.54

###

assay: Phase I trial of oral PCLX-001: plasma pharmacokinetics, noncompartmental analysis (Phoenix WinNonlin 8.3); assay type: in vivo, human; conditions: human, plasma, oral, 70 mg, Table 4; not on Pantoprazole; 70 mg; N 1; Day 15
outcomeMeasure: Cmax
Note: a bare number is incomplete; add the unit.

Exercise: Name the reported Cmax value associated with the compound `Cc1c(NS(=O)(=O)c2c(Cl)cc(-c3ccnc(N4CCNCC4)c3)cc2Cl)c(CC(C)C)nn1C`
Key: 629 ng/mL

###

experiment: Phase I trial of oral PCLX-001: plasma pharmacokinetics, noncompartmental analysis (Phoenix WinNonlin 8.3); assay type: in vivo, human; details: human, plasma, po, 20 mg, Table 6; Patient 115-002-004; Day 15; 20 mg QD oral; Pantoprazole No
outcomeMeasure: AUC(0-inf) (ng·h/mL)
Please give a number only; it is taken to be in ng·h/mL.

Exercise: Name the reported AUC(0-inf) value associated with the molecule `Cc1c(NS(=O)(=O)c2c(Cl)cc(-c3ccnc(N4CCNCC4)c3)cc2Cl)c(CC(C)C)nn1C`
Key: 2110

###

assay: Phase I trial of oral PCLX-001: plasma pharmacokinetics, noncompartmental analysis (Phoenix WinNonlin 8.3); format: in vivo, human; settings: human, plasma, po, 20 mg, Table 6; Patient 115-002-001; Day 15; 20 mg QD oral; Pantoprazole No
outcomeMeasure: AUC(0-inf) (ng·h/mL)
Please give a number only; it is taken to be in ng·h/mL.

Exercise: Name the reported AUC(0-inf) value associated with the molecule Cc1c(NS(=O)(=O)c2c(Cl)cc(-c3ccnc(N4CCNCC4)c3)cc2Cl)c(CC(C)C)nn1C [PCLX-001]
Key: 3600

###

assay: Phase I trial of oral PCLX-001: plasma pharmacokinetics, noncompartmental analysis (Phoenix WinNonlin 8.3); type: in vivo, human; conditions: human, plasma, oral, 40 mg, Table 5; on Pantoprazole; 40 mg; N 1; Day 15
outcomeMeasure: Cmax (ng/mL)
Please give a number only; it is taken to be in ng/mL.

Exercise: Name the reported Cmax value associated with the compound `Cc1c(NS(=O)(=O)c2c(Cl)cc(-c3ccnc(N4CCNCC4)c3)cc2Cl)c(CC(C)C)nn1C`
Key: 802

###

Test: Phase I trial of oral PCLX-001: plasma pharmacokinetics, noncompartmental analysis (Phoenix WinNonlin 8.3)
Format: in vivo, human
Settings: human, plasma, oral, 100 mg, Table 4; Mean; not on Pantoprazole; 100 mg; N 2; Day 15; read-out: AUClast
Description: The clinical trial is entitled “Phase I Trial of PCLX-001 in B-cell Non-Hodgkin Lymphoma and Advanced Solid Malignancies” and registered at clinicaltrials.gov as NCT04836195. It is a phase I dose-escalation study of oral PCLX-001, conducted in a multicenter, non-randomized, open-label, non-controlled design. The study is comprised of two parts: Part A (single-agent dose escalation) and Part B (single-agent expansion cohorts). […]
outcomeMeasure: AUC(0-t) (ng·h/mL)
Please give a number only; it is taken to be in ng·h/mL.

Exercise: Name the reported AUC(0-t) value associated with the compound Cc1c(NS(=O)(=O)c2c(Cl)cc(-c3ccnc(N4CCNCC4)c3)cc2Cl)c(CC(C)C)nn1C [PCLX-001]
Key: 17400

###

assay: Phase I trial of oral PCLX-001: plasma pharmacokinetics, noncompartmental analysis (Phoenix WinNonlin 8.3); type: in vivo, human; conditions: human, plasma, oral, 40 mg, Table 5; on Pantoprazole; 40 mg; N 1; Day 1; read-out: AUClast
outcomeMeasure: AUC(0-t) (ng·h/mL)
Please give a number only; it is taken to be in ng·h/mL.

Exercise: Name the reported AUC(0-t) value associated with the compound `Cc1c(NS(=O)(=O)c2c(Cl)cc(-c3ccnc(N4CCNCC4)c3)cc2Cl)c(CC(C)C)nn1C`
Key: 4430
